The reported numbers originate from patent US20240167070A1.

Provide the reported pKi of each item.
- system.tested: T1, matrix metalloprotease 2 (MMP2) (UniProt P08253 110-660, limits assumed)
- T1 construct: also called matrix metalloproteinases 2
- T1 sequence (looked up): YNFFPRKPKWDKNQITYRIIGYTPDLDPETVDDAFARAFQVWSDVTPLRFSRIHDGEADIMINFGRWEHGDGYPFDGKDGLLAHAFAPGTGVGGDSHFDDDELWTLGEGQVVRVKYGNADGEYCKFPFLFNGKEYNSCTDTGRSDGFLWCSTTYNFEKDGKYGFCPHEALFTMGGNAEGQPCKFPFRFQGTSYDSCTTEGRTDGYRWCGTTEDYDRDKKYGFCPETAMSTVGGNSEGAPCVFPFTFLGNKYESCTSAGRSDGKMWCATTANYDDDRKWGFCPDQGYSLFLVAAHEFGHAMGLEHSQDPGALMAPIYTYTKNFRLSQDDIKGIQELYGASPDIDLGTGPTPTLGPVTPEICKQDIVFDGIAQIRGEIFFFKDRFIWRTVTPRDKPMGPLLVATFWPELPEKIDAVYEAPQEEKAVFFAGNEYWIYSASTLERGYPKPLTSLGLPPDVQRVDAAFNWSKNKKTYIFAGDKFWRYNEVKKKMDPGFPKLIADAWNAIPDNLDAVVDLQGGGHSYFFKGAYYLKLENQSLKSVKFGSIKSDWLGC
- run.description: MMP2 FRET-substrate inhibition assay; Ki = IC50/(1+[S]0/Km)
- Protocol: The inhibitory activity of the peptides was determined by measuring the MMPs' protease activity towards a FRET substrate. […] MMP2 was pre-incubated with the peptide inhibitors for 10 min before adding the substrate.
Starred links: 1 amine or outer side, 2 acyl side, 3 side chain; linkers in the order of their positions; H or OH if unused. Non-standard residues stand in square brackets, D forms with d. Primed or numbered codes have the meaning given here. Asn(OH)″ = N^γ-hydroxy-L-asparagine (L-aspartic acid β-hydroxamate), O=C(C[C@H](N[*:1])C(=O)[*:2])NO; Asn(OH) = N-gamma-hydroxy-L-asparagine, O=C(C[C@H](N[*:1])C(=O)[*:2])NO[*:3]
Numbers only, as −log10 of the molar value.

cyclo(ATRSGISYGQ[Asn(OH)″]ALMPSGQYM) (SMILES CC[C@H](C)[C@@H]1NC(=O)CNC(=O)[C@H](CO)NC(=O)[C@H](CCCNC(=N)N)NC(=O)[C@H]([C@@H](C)O)NC(=O)[C@H](C)NC(=O)[C@H](CCSC)NC(=O)[C@H](Cc2ccc(O)cc2)NC(=O)[C@H](CCC(N)=O)NC(=O)CNC(=O)[C@H](CO)NC(=O)[C@@H]2CCCN2C(=O)[C@H](CCSC)NC(=O)[C@H](CC(C)C)NC(=O)[C@H](C)NC(=O)[C@H](CC(=O)NO)NC(=O)[C@H](CCC(N)=O)NC(=O)CNC(=O)[C@H](Cc2ccc(O)cc2)NC(=O)[C@H](CO)NC1=O, also called peptide 15) [cyclo[…(OH)ALMPSGQYM]] ... 6.64

Could I get pKi for every one of these entries?
1. cyclo(GFCRCLCRRGVCRCICTR) (disulfide (positions not given here); not fully specified; printed as cyclo[GFCRCLCRRGVCRCICTR], also called peptide 16; native RTD-1) [rhesus theta defensin-1 (RTD-1) 16, cyclo[GFCRCLCRRGVCRCICTR]]
2. cyclo(GSGISYGQ[Asn(OH)]ALMPSGA) (SMILES CC[C@H](C)[C@@H]1NC(=O)CNC(=O)[C@H](CO)NC(=O)CNC(=O)[C@H](C)NC(=O)CNC(=O)[C@H](CO)NC(=O)[C@@H]2CCCN2C(=O)[C@H](CCSC)NC(=O)[C@H](CC(C)C)NC(=O)[C@H](C)NC(=O)[C@H](CC(=O)NO)NC(=O)[C@H](CCC(N)=O)NC(=O)CNC(=O)[C@H](Cc2ccc(O)cc2)NC(=O)[C@H](CO)NC1=O, also called peptide 13) [cyclo[…(OH)ALMPSGA]]
3. cyclo(SGISYGQ[Asn(OH)″]ALMPSG) (SMILES CC[C@H](C)[C@@H]1NC(=O)CNC(=O)[C@H](CO)NC(=O)CNC(=O)[C@H](CO)NC(=O)[C@@H]2CCCN2C(=O)[C@H](CCSC)NC(=O)[C@H](CC(C)C)NC(=O)[C@H](C)NC(=O)[C@H](CC(=O)NO)NC(=O)[C@H](CCC(N)=O)NC(=O)CNC(=O)[C@H](Cc2ccc(O)cc2)NC(=O)[C@H](CO)NC1=O, also called peptide 12) [cyclo[SGISYGQN(OH)ALMPSG]]

Result:
1: 7.22; 2: 4.92; 3: 5.16
